Listing: residual activity of selected molecules
Target: UniProtKB P08069
Sequence (P08069 whole entry, looked up): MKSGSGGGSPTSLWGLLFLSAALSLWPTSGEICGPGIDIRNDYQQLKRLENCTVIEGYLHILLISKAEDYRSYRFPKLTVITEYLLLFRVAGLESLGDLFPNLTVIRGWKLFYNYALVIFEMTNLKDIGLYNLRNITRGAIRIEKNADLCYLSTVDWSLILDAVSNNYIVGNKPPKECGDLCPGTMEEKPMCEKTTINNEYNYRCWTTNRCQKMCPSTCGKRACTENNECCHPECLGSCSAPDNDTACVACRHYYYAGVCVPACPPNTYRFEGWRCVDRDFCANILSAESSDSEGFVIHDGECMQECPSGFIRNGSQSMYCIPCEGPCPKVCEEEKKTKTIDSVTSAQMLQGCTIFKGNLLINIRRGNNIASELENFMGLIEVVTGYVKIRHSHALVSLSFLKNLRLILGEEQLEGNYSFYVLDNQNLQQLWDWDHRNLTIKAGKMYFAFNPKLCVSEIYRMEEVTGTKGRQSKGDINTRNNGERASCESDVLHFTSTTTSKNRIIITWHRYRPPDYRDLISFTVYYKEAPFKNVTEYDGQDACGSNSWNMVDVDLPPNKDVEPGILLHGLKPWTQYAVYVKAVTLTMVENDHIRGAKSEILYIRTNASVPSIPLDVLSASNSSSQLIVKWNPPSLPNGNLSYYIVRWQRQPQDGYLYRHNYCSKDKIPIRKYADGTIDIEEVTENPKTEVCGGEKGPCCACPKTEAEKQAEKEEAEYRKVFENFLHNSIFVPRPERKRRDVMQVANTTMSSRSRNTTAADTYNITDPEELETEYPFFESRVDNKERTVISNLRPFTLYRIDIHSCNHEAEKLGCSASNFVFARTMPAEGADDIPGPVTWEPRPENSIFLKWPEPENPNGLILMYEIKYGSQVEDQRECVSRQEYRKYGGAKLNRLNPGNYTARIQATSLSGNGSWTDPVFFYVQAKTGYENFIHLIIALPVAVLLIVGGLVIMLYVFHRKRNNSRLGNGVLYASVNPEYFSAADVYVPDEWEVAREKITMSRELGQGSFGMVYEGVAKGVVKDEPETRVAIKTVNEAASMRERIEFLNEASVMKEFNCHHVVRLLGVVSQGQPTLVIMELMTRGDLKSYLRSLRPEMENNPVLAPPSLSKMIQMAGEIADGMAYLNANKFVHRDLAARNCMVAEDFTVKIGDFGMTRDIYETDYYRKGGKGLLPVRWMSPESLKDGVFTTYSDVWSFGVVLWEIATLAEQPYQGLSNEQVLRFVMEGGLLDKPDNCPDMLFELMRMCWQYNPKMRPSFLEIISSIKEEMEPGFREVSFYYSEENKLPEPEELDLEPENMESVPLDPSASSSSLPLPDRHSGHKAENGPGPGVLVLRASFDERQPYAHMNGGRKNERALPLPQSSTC
Assay: radiometric filter-binding kinase assay, Kinase HotSpot
Conditions: compound 0.5 µM; ATP 10 µM
measured.parameter: residual activity (%)

>>> df
                               given_smiles  measured_number
0  Nc1n[nH]c2nnc(-c3c(-c4ccccc4)nn4ccccc34)cc12              102
1  O=c1cc(-c2cccc3c2Sc2ccccc2S3)oc(N2CCOCC2)c1             98.2
2  CC(C)(C)c1nc2c3ccc(F)cc3c3c(=O)[nH]ccc3c2[nH]1             91.3

====

Listing: residual activity of selected compounds
Biological target: JAK3 JH1 JH2 (human)
Assay: radiometric filter-binding kinase assay, Kinase HotSpot
Conditions: compound 0.5 µM; ATP 10 µM
measured.parameter: residual activity (%)

In [3]: df
Out[3]:
                                    compound  measured_parameter  measured_number
 0  NC(=O)c1ccc(N(C(N)=O)c2c(F)cccc2F)nc1-c1ccc(F)cc1F   residual activity             95.7
 1  COc1cc2ncnc(Nc3ccc(F)c(Cl)c3)c2cc1OCCCN1CCOCC1   residual activity             96.6
 2  Nc1n[nH]c2nnc(-c3c(-c4ccccc4)nn4ccccc34)cc12   residual activity              105
 3     O=c1cc(N2CCNCC2)oc2c(-c3ccccc3)cccc12   residual activity             96.9
 4   CC(C)n1cnc2c(Nc3cccc(Cl)c3)nc(NCCO)nc21   residual activity             24.7
 5  CSc1nc(-c2ccc(F)cc2)c(-c2ccnc(NC(C)c3ccccc3)c2)[nH]1 (configuration not stated)   residual activity             98.5
 6      COc1ccc(-c2cnc3c(-c4ccsc4)cnn3c2)cc1   residual activity             98.5
 7           CCN1/C(=C/C(C)=O)Sc2ccc(OC)cc21   residual activity              103
 8  Nc1nc(Nc2ccc(S(N)(=O)=O)cc2)nn1C(=S)Nc1c(F)cccc1F   residual activity             5.21
 9  Nc1nc(Nc2ccc(S(N)(=O)=O)cc2)nn1C(=O)c1c(F)cccc1F   residual activity              8.5
10  Oc1ccc(-c2nc(-c3ccc(F)cc3)c(-c3ccncc3)[nH]2)cc1   residual activity             95.8
11  O=C(NC(NC(=S)Nc1ccc(F)c([N+](=O)[O-])c1)C(Cl)(Cl)Cl)C(c1ccccc1)c1ccccc1 (configuration not stated)   residual activity              110
12  CC(C)[C@H](CO)Nc1nc(Nc2cccc(Cl)c2)c2ncn(C(C)C)c2n1   residual activity             92.5
13  COc1cc2nccc(Oc3ccc(NC(=S)NC(=O)c4ccccc4C)cc3)c2cc1OC   residual activity             96.6
14    Clc1ccc(Nc2nnc(Cc3ccncc3)c3ccccc23)cc1   residual activity             92.1
15   O=C1Nc2ccccc2/C1=C\c1c(Cl)[nH]c2ccccc12   residual activity              102
16  CS(=O)c1ccc(-c2nc(-c3ccc(F)cc3)c(-c3ccncc3)[nH]2)cc1 (configuration not stated)   residual activity             93.9
17  Cc1ccc(NC(=O)c2ccc(CN3CCN(C)CC3)cc2)cc1Nc1nc(-c2cccnc2)cs1   residual activity             93.7
18               Cc1cc2ncc(-c3ccccc3)nc2cc1C   residual activity              101
19  O=C1Cc2c([nH]c3ccc([N+](=O)[O-])cc23)-c2ccccc2N1   residual activity             99.7
20      O=C(Nc1ccc(Cl)cc1)c1ccccc1NCc1ccncc1   residual activity             87.8
21  CC(C)(C)c1nc2c3ccc(F)cc3c3c(=O)[nH]ccc3c2[nH]1   residual activity            0.445
